Test system: NCI-H23 lung
Test: NCI-60 one-dose screen, 48 h (100 = growth as untreated, 0 = no growth, -100 = all killed)
Settings: 10 µM unless noted
About 83,000 compounds went through this panel and 20% of them were active in at least one assay; those are over-represented in the sample as a whole.
Everything with growth lower than 60% is -1; everything else, including exactly 60%, is 1.

>>> assigned_label("NNC(=O)/C(=C\\c1ccc([N+](=O)[O-])cc1)CC(=O)c1ccc(Cl)c(Cl)c1")
1
>>> assigned_label("Cc1cc(NC(=O)c2cnc(N3CCN(CCOCCOCCOCCOCCC(=O)N[C@H](C(=O)N4C[C@H](O)C[C@H]4C(=O)N[C@@H](C)c4ccc(-c5scnc5C)cc4)C(C)(C)C)CC3)cn2)c2ncccc2c1")
-1
>>> assigned_label("CCCCCCOc1ccc(C(=N)N(CCCC)CCCC)c2ccccc12")
-1
>>> assigned_label("CC1=CC[C@@H]2CC[C@]3(C)[C@H](CC[C@@H]4[C@@]5(C)CCCNC(C)(C)[C@@H]5CC[C@]43C)[C@H]2[C@@H]1C")
1
>>> assigned_label("COc1ccc(C(=O)c2cc3c(N)c(C(=O)Nc4cccc(Cl)c4)sc3nc2C)cc1")
-1
>>> assigned_label("O=C(OCc1nc2nc(Cl)nc(N3CCOCC3)c2[nH]1)n1ccnc1")
-1
>>> assigned_label("CC(C)(C)CC(C)(C)Nc1c(-c2ccc(C(F)(F)F)cc2)nc2cnccn12")
1
>>> assigned_label("COc1ccc(C(=O)c2cc3c(N)c(C(=O)Nc4cccc(Cl)c4C)sc3nc2C)cc1")
-1
>>> assigned_label("COc1cc(C(=O)c2cnc(-c3ccc4cc[nH]c4c3)[nH]2)cc(OC)c1OC")
-1
>>> assigned_label("CCOc1cc(CNc2ccc(N3CCOCC3)c(C(=O)O)c2)ccc1OC")
1
>>> assigned_label("O=C(Nc1ccc2cc3ccc(NC(=O)N4CCCCCC4)cc3nc2c1)N1CCCCCC1")
-1
>>> assigned_label("COc1ccc(-c2nc(N/N=C/c3c[nH]c4ccccc34)nc(N3CCOCC3)c2C#N)cc1")
1
>>> assigned_label("CC(C)(O)C1CCCN1C(=O)c1ccccc1I (stereo unspecified)")
1
>>> assigned_label("CCCCc1ccc(Nc2nnc(SCC(=O)NC(=O)NCC)s2)cc1")
1
>>> assigned_label("COc1ccccc1/C=N/NC1=NC2C(N1)N(C)C(=O)N2C (stereo unspecified)")
1
>>> assigned_label("O=S(=O)(NCCNc1nccc(-c2c(-c3ccc(F)c(O)c3)nc3occn23)n1)c1ccccc1")
-1

Numbers sourced from PubChem BioAssay (NCI).
